Each record here notes measured KIDNEY_R.
Organism: Rattus norvegicus
experiment-description: Open TG-GATES - Regimen: Single
Type: toxicity, organism-based, Sprague-Dawley
Parameters: regimen Single, gender Male, age 6 weeks
applied-conditions: in vivo, po, 1000 mg/kg, 6 h, tissue Kidney, route gavage, dose level High
attribute-measured: KIDNEY_R (g)

compound	observed-value
Clc1ccccc1CN1CCc2sccc2C1	0.9
O=C(O)c1cn(C2CC2)c2cc(N3CCNCC3)c(F)cc2c1=O	0.8
C[C@H](CS)C(=O)N1CCC[C@H]1C(=O)O	1
O=C(O)c1cc(/N=N/c2ccc(S(=O)(=O)Nc3ccccn3)cc2)ccc1O	1
CCc1cc(C(N)=S)ccn1 [ETHIONAMIDE]	1

====

# ALP per record follows
Species on record: Rattus norvegicus
experiment-description: Open TG-GATES - Regimen: Single
Type: toxicity, organism-based, Sprague-Dawley
Parameters: regimen Single, gender Male, age 6 weeks
applied-conditions: in vivo, po, 1000 mg/kg, 6 h, tissue Plasma, route gavage, dose level High

compound	ALP [IU/L]
O=C(O)c1cn(C2CC2)c2cc(N3CCNCC3)c(F)cc2c1=O [CIPROFLOXACIN]	904.2
C[C@H](CS)C(=O)N1CCC[C@H]1C(=O)O [CAPTOPRIL]	736.6
CCc1cc(C(N)=S)ccn1 [ETHIONAMIDE]	679
Clc1ccccc1CN1CCc2sccc2C1 [TICLOPIDINE]	863
O=C(O)c1cc(/N=N/c2ccc(S(=O)(=O)Nc3ccccn3)cc2)ccc1O [SULFASALAZINE]	928.2

====

Organism: Rattus norvegicus
experiment-description: Open TG-GATES - Regimen: Daily Repeat
Assay type: toxicity, organism-based, Sprague-Dawley
Parameters: regimen Daily Repeat, gender Male, age 6 weeks
applied-conditions: in vivo, po, 0 mg/kg, […], tissue Plasma, route gavage, dose level Control, time 14 day
attribute-measured: TC (mg/dL)

molecular-string	observed-value
Cn1c(=O)c2[nH]cnc2n(C)c1=O.O	71.4
CC(=O)Oc1ccccc1C(=O)O	67.8
O=C(O)c1cc(/N=N/c2ccc(S(=O)(=O)Nc3ccccn3)cc2)ccc1O	63.2
Clc1ccccc1CN1CCc2sccc2C1	65.2
COc1ccc(Cc2nccc3cc(OC)c(OC)cc23)cc1OC	78.4

====

Species on record: Rattus norvegicus
experiment-description: Open TG-GATES - Regimen: Single
Format: toxicity, organism-based, Sprague-Dawley
Design: regimen Single, gender Male, age 6 weeks
applied-conditions: in vivo, po, 0 mg/kg, 6 h, tissue Plasma, route gavage, dose level Control
attribute-measured: Cl

compound	attribute-measured	observed-value
CN(C)CCC=C1c2ccccc2CCc2ccccc21	Cl	105.8 meq/L
CCc1cc(C(N)=S)ccn1 [ETHIONAMIDE]	Cl	104 meq/L
NC(=O)N1c2ccccc2C=Cc2ccccc21 [CARBAMAZEPINE]	Cl	103 meq/L
COc1ccc(Cc2nccc3cc(OC)c(OC)cc23)cc1OC	Cl	106.2 meq/L
Cn1c(=O)c2[nH]cnc2n(C)c1=O.O	Cl	105.8 meq/L
CC(=O)Oc1ccccc1C(=O)O	Cl	103.2 meq/L
NC(=O)N/N=C/c1ccc([N+](=O)[O-])o1	Cl	105 meq/L
O=C(O)c1cc(/N=N/c2ccc(S(=O)(=O)Nc3ccccn3)cc2)ccc1O	Cl	101.6 meq/L

Values from ChEMBL document CHEMBL3885861
